Data provenance is the supplement of paper PMC6555819.

Tested on: RXRa DBDmut IVT, anti-RXR (DBD mutation: RXRa K156A/R161A, NR concentration 90 nM)
Experiment: PBM binding z-score (relative to random genomic background probes); higher = stronger binding; sequences stand for … in GC…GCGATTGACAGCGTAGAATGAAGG
Reported PBM binding z-score values are given for each entry in this list.
PARAMETER: PBM binding z-score

RECORD SEQUENCE	ASSAY TARGET	VALUE REPORTED
CGAACTAGGTCATCAAGGACAGTGAATACATTGA	RXRa DBDmut IVT, anti-RXR (DBD mutation: RXRa K156A/R161A, NR concentration 90 nM)	1.92
CTAACTAGGTCAAGGACAGTGAATCTCCGCACGC	RXRa DBDmut IVT, anti-RXR (DBD mutation: RXRa K156A/R161A, NR concentration 90 nM)	1.34
TCTCGGAGGACACGAAGGTCAGACCTTTCCAGAG	RXRa DBDmut IVT, anti-RXR (DBD mutation: RXRa K156A/R161A, NR concentration 90 nM)	1.03
TCATATAGGTAAAGGTGAAAGCCGAACGATATGA	RXRa DBDmut IVT, anti-RXR (DBD mutation: RXRa K156A/R161A, NR concentration 90 nM)	0.508
CGAACTAGGTTAAGGACAGTGAATCTCCGCACGC	RXRa DBDmut IVT, anti-RXR (DBD mutation: RXRa K156A/R161A, NR concentration 90 nM)	0.432
CCTCGGAGGACAACAGGAGGTCAGCGCTGCCAGA	RXRa DBDmut IVT, anti-RXR (DBD mutation: RXRa K156A/R161A, NR concentration 90 nM)	0.326
TCTCGGAGGAAACGAAGGTCAGAGCTTTCCAGAG	RXRa DBDmut IVT, anti-RXR (DBD mutation: RXRa K156A/R161A, NR concentration 90 nM)	-0.239
TCATAAAGGTAAACAGGTGAAAGTCCGTAAGTTA	RXRa DBDmut IVT, anti-RXR (DBD mutation: RXRa K156A/R161A, NR concentration 90 nM)	1.53
CCGACTGGGGCAAGGTTACCTTAACGCACAGCCA	RXRa DBDmut IVT, anti-RXR (DBD mutation: RXRa K156A/R161A, NR concentration 90 nM)	-0.49
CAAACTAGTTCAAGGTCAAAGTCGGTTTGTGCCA	RXRa DBDmut IVT, anti-RXR (DBD mutation: RXRa K156A/R161A, NR concentration 90 nM)	3.32
AGAATGAGGTTAAGAACAGGGAAACAGAATACAT	RXRa DBDmut IVT, anti-RXR (DBD mutation: RXRa K156A/R161A, NR concentration 90 nM)	0.678
GATACAGGGTCAAGGCCCGAGTACGCGTATTGAT	RXRa DBDmut IVT, anti-RXR (DBD mutation: RXRa K156A/R161A, NR concentration 90 nM)	2.42
